B1: Chromodomain-helicase-DNA-binding protein 4, residues 365 to 417; numbered along this chain, Q14839 (parent)
chain: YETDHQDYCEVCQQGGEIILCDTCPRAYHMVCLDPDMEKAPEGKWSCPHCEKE

- Variants of: B1
- assay_explanation: abundance fitness (aPCA) (normalised: wild type 0, dead -1); higher = more abundant; growth selection in yeast, the domain comes from the species named
- reported_conditions: Homo sapiens
reported_endpoint: abundance fitness

[[record]]
mutant_designation = "E42M"
reported_endpoint = "abundance fitness"
number = -0.069

[[record]]
mutant_designation = "E10T"
reported_endpoint = "abundance fitness"
number = -0.093

[[record]]
mutant_designation = "L20Q"
reported_endpoint = "abundance fitness"
number = -0.022

[[record]]
mutant_designation = "M30S"
reported_endpoint = "abundance fitness"
number = -0.228

[[record]]
mutant_designation = "R26Y"
reported_endpoint = "abundance fitness"
number = -0.413

[[record]]
mutant_designation = "L33S"
reported_endpoint = "abundance fitness"
number = 0.141

[[record]]
mutant_designation = "E10C"
reported_endpoint = "abundance fitness"
number = -0.26

[[record]]
mutant_designation = "A27K"
reported_endpoint = "abundance fitness"
number = -0.238

[[record]]
mutant_designation = "D4Y"
reported_endpoint = "abundance fitness"
number = 0.004

[[record]]
mutant_designation = "C24V"
reported_endpoint = "abundance fitness"
number = -0.99

[[record]]
mutant_designation = "I18W"
reported_endpoint = "abundance fitness"
number = -0.218

[[record]]
mutant_designation = "E10V"
reported_endpoint = "abundance fitness"
number = -0.197

[[record]]
mutant_designation = "D36I"
reported_endpoint = "abundance fitness"
number = -0.245

[[record]]
mutant_designation = "C32H"
reported_endpoint = "abundance fitness"
number = -0.072

[[record]]
mutant_designation = "Q13C"
reported_endpoint = "abundance fitness"
number = -0.045

[[record]]
mutant_designation = "H49Q"
reported_endpoint = "abundance fitness"
number = -0.141

[[record]]
mutant_designation = "I18E"
reported_endpoint = "abundance fitness"
number = 0.046

[[record]]
mutant_designation = "C32V"
reported_endpoint = "abundance fitness"
number = -0.63

[[record]]
mutant_designation = "C50S"
reported_endpoint = "abundance fitness"
number = -0.222

[[record]]
mutant_designation = "V31S"
reported_endpoint = "abundance fitness"
number = 0.044

[[record]]
mutant_designation = "Q14C"
reported_endpoint = "abundance fitness"
number = -0.337

[[record]]
mutant_designation = "Y28V"
reported_endpoint = "abundance fitness"
number = -0.05

[[record]]
mutant_designation = "E38H"
reported_endpoint = "abundance fitness"
number = -0.079

[[record]]
mutant_designation = "Q13T"
reported_endpoint = "abundance fitness"
number = -0.015

[[record]]
mutant_designation = "C12N"
reported_endpoint = "abundance fitness"
number = -0.605

[[record]]
mutant_designation = "C47A"
reported_endpoint = "abundance fitness"
number = -0.756

[[record]]
mutant_designation = "L33M"
reported_endpoint = "abundance fitness"
number = -0.084

[[record]]
mutant_designation = "L20P"
reported_endpoint = "abundance fitness"
number = 0.149

[[record]]
mutant_designation = "S46Y"
reported_endpoint = "abundance fitness"
number = -0.003

[[record]]
mutant_designation = "C24R"
reported_endpoint = "abundance fitness"
number = -0.775

[[record]]
mutant_designation = "E42A"
reported_endpoint = "abundance fitness"
number = -0.178

[[record]]
mutant_designation = "Q6G"
reported_endpoint = "abundance fitness"
number = -0.384

[[record]]
mutant_designation = "L33Q"
reported_endpoint = "abundance fitness"
number = -0.114

[[record]]
mutant_designation = "C9M"
reported_endpoint = "abundance fitness"
number = -0.562

[[record]]
mutant_designation = "E2H"
reported_endpoint = "abundance fitness"
number = 0.347

[[record]]
mutant_designation = "P41D"
reported_endpoint = "abundance fitness"
number = 0.022

[[record]]
mutant_designation = "D36F"
reported_endpoint = "abundance fitness"
number = -0.325

[[record]]
mutant_designation = "E38K"
reported_endpoint = "abundance fitness"
number = -0.244

[[record]]
mutant_designation = "C32E"
reported_endpoint = "abundance fitness"
number = -0.504

[[record]]
mutant_designation = "L20V"
reported_endpoint = "abundance fitness"
number = -0.028

[[record]]
mutant_designation = "A27I"
reported_endpoint = "abundance fitness"
number = -0.421

[[record]]
mutant_designation = "Q13L"
reported_endpoint = "abundance fitness"
number = -0.091

[[record]]
mutant_designation = "V31G"
reported_endpoint = "abundance fitness"
number = -0.017

[[record]]
mutant_designation = "E17S"
reported_endpoint = "abundance fitness"
number = -0.033

[[record]]
mutant_designation = "E10Y"
reported_endpoint = "abundance fitness"
number = 0.133

[[record]]
mutant_designation = "S46W"
reported_endpoint = "abundance fitness"
number = 0.014

[[record]]
mutant_designation = "Y8H"
reported_endpoint = "abundance fitness"
number = 0.481

[[record]]
mutant_designation = "E38A"
reported_endpoint = "abundance fitness"
number = -0.261

[[record]]
mutant_designation = "H29L"
reported_endpoint = "abundance fitness"
number = -1.04

[[record]]
mutant_designation = "K44V"
reported_endpoint = "abundance fitness"
number = -0.109

[[record]]
mutant_designation = "E38T"
reported_endpoint = "abundance fitness"
number = -0.657

[[record]]
mutant_designation = "M30D"
reported_endpoint = "abundance fitness"
number = -0.272

[[record]]
mutant_designation = "P25I"
reported_endpoint = "abundance fitness"
number = -0.057

[[record]]
mutant_designation = "I19P"
reported_endpoint = "abundance fitness"
number = -0.849

[[record]]
mutant_designation = "E2R"
reported_endpoint = "abundance fitness"
number = 0.406

[[record]]
mutant_designation = "C21T"
reported_endpoint = "abundance fitness"
number = -0.467

[[record]]
mutant_designation = "T23N"
reported_endpoint = "abundance fitness"
number = -0.201

[[record]]
mutant_designation = "T3P"
reported_endpoint = "abundance fitness"
number = -0.225

[[record]]
mutant_designation = "H49G"
reported_endpoint = "abundance fitness"
number = -0.086

[[record]]
mutant_designation = "S46C"
reported_endpoint = "abundance fitness"
number = 0.031

[[record]]
mutant_designation = "C12M"
reported_endpoint = "abundance fitness"
number = -0.643

[[record]]
mutant_designation = "G15T"
reported_endpoint = "abundance fitness"
number = -0.003

[[record]]
mutant_designation = "E10N"
reported_endpoint = "abundance fitness"
number = -0.182

[[record]]
mutant_designation = "D36R"
reported_endpoint = "abundance fitness"
number = -0.055

[[record]]
mutant_designation = "P25E"
reported_endpoint = "abundance fitness"
number = 0.198

[[record]]
mutant_designation = "E42Q"
reported_endpoint = "abundance fitness"
number = -0.012

[[record]]
mutant_designation = "P35R"
reported_endpoint = "abundance fitness"
number = 0.029

[[record]]
mutant_designation = "D7I"
reported_endpoint = "abundance fitness"
number = -0.458

[[record]]
mutant_designation = "C24I"
reported_endpoint = "abundance fitness"
number = -1.18

[[record]]
mutant_designation = "E51L"
reported_endpoint = "abundance fitness"
number = -0.275

[[record]]
mutant_designation = "P48E"
reported_endpoint = "abundance fitness"
number = -0.151

[[record]]
mutant_designation = "V11Q"
reported_endpoint = "abundance fitness"
number = -0.268

[[record]]
mutant_designation = "I19M"
reported_endpoint = "abundance fitness"
number = 0.277

[[record]]
mutant_designation = "D34A"
reported_endpoint = "abundance fitness"
number = -0.07

[[record]]
mutant_designation = "G15A"
reported_endpoint = "abundance fitness"
number = -0.028

[[record]]
mutant_designation = "I19T"
reported_endpoint = "abundance fitness"
number = -0.101

[[record]]
mutant_designation = "E2L"
reported_endpoint = "abundance fitness"
number = 0.386

[[record]]
mutant_designation = "T3Q"
reported_endpoint = "abundance fitness"
number = -0.29

[[record]]
mutant_designation = "D36P"
reported_endpoint = "abundance fitness"
number = -0.136

[[record]]
mutant_designation = "K52T"
reported_endpoint = "abundance fitness"
number = 0.06

[[record]]
mutant_designation = "M30T"
reported_endpoint = "abundance fitness"
number = 0.077

[[record]]
mutant_designation = "D4E"
reported_endpoint = "abundance fitness"
number = 0.1

[[record]]
mutant_designation = "T23Q"
reported_endpoint = "abundance fitness"
number = -0.107

[[record]]
mutant_designation = "G16K"
reported_endpoint = "abundance fitness"
number = 0.026

[[record]]
mutant_designation = "Q6V"
reported_endpoint = "abundance fitness"
number = -0.347

[[record]]
mutant_designation = "C50M"
reported_endpoint = "abundance fitness"
number = -0.819

[[record]]
mutant_designation = "L33E"
reported_endpoint = "abundance fitness"
number = -0.496

[[record]]
mutant_designation = "C24G"
reported_endpoint = "abundance fitness"
number = -0.695

[[record]]
mutant_designation = "C12K"
reported_endpoint = "abundance fitness"
number = -0.775

[[record]]
mutant_designation = "G16Y"
reported_endpoint = "abundance fitness"
number = -0.262

[[record]]
mutant_designation = "C50W"
reported_endpoint = "abundance fitness"
number = -0.619


meta.source: the Human Domainome abundance scans (Beltran et al. 2025)
